Entries and their measured EC50 follow.
Molecular target: (Homo sapiens)
Sequence (P43220 24-463): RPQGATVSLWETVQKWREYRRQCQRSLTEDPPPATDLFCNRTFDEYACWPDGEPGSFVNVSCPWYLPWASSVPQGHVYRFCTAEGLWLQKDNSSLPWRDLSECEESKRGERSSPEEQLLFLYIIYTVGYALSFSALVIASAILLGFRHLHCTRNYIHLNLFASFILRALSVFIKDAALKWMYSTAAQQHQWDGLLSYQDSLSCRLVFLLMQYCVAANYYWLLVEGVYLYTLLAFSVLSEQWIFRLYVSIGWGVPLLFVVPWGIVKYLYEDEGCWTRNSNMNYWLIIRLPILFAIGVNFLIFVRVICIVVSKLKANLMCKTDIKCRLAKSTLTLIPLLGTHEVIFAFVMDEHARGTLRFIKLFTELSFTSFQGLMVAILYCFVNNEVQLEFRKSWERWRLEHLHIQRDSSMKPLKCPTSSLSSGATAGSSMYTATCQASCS
Assay: h-GLP-1 activity assay (cAMP HTRF, HEK293 cells with stable expression of human GLP-1)
Settings: relative EC50, 10 nM human GLP-1 set as 100% response, 30 min at 37° C.

Record excerpt, results attached:
1) Cc1cc(-n2nc3c(c2-n2ccn(-c4ccc5c(cnn5C)c4F)c2=O)[C@H](C)N(C(=O)c2cn4cc([C@@H]5CCOC(C)(C)C5)ccc4c2[C@@]2(c4noc(=O)[nH]4)C[C@@H]2C)CC3)cc(C)c1F (single isomer, unassigned): < 20 nM
2) C[C@H]1c2c(nn(-c3ccc(F)c(C4CC4)c3)c2-n2ccn(-c3ccc4c(cnn4C)c3F)c2=O)CCN1C(=O)c1cc2cc([C@@H]3CCOC(C)(C)C3)c(F)cn2c1C1(c2noc(=O)[nH]2)CC1 (single isomer, unassigned): 20 to 100 nM
3) C[C@H]1c2c(nn(-c3ccc(F)c(C4CC4)c3)c2-n2ccn(-c3ccc4c(cnn4C)c3F)c2=O)CCN1C(=O)c1nc2cc([C@@H]3CCOC(C)(C)C3)ccn2c1C1(c2noc(=O)[nH]2)CC1 (single isomer, unassigned): 20 to 100 nM

[ask] Reported EC50 for C[C@H]1c2c(nn(-c3cc(F)c(F)c(F)c3)c2-n2ccn(-c3ccc4c(cnn4C)c3F)c2=O)CCN1C(=O)c1cn2cc([C@@H]3CCOC(C)(C)C3)ccc2c1C1(c2noc(=O)[nH]2)CC1 (single isomer, unassigned) : what is it?
[reply] < 20 nM
